measured.target: Clade B BaL gp120 protein (HIV-1 Clade B, BaL)
measurement.protocol: BLI (Octet), IgG on anti-hIgG Fc sensor, gp120 analyte, 1:1 fit
measurement.label: koff (s⁻¹)
Answers are plain numbers, in s⁻¹.

Answered cases to consult:
Germ6 (antibody, V domains shown) VH: ADLVQSGAVVKKPGDSVRVSCEAQGYRFPDYIIHWIRRAPGQGPEWMGWMNPMGGQVNIPWKFQGRVSMTRDTSIETAYLDLRGLKSDDTAVYYCVRDRSNGSGKRFESSNWFLDLWGRGTAVTVQS VL: QSALTQPRSVSGSPGQSVTISCTGTHNLVSWCQHQPGRAPKLLIYDFNKRPSGVPDRFSGSGSGGTASLTISGLQDEDDAEYFCWAYEAFGGGTKLTVL ... 7.11e-05
NglycoND (antibody, V domains shown) VH: ADLVQSGAVVKKPGDSVRISCEAQGYRFPDYIIHWIRRAPGQGPEWMGWMNPMGGQVNIPWKFQGRVSMTRDTSIETAFLDLRGLKSDDTAVYYCVRDRSDGSGKRFESSNWFLDLWGRGTAVTIQS VL: QSALTQPRSVSASPGQSVTISCTGTHNLVSWCQHQPGRAPKLLIYDFNKRPSGVPDRFSGSGSGGTASLTITGLQDDDDAEYFCWAYEAFGGGTKLTVL ... 0.00128
Germ18 (antibody, V domains shown) VH: QVQLVQSGAEVKKPGASVKVSCEASGYRFPDYIIHWIRRAPGQGPEWMGWMNPMGGQVNIPWKFQGRVSMTRDTSIETAYMELRGLRSDDTAVYYCVRDRSNGSGKRFESSNWFLDLWGRGTLVTVSS VL: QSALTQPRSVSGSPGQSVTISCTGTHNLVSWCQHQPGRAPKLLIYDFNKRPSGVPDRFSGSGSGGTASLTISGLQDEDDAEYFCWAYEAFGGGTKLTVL ... 7.09e-05
CysCV (antibody, V domains shown) VH: ADLVQSGAVVKKPGDSVRISCEAQGYRFPDYIIHWIRRAPGQGPEWMGWMNPMGGQVNIPWKFQGRVSMTRDTSIETAFLDLRGLKSDDTAVYYCVRDRSNGSGKRFESSNWFLDLWGRGTAVTIQS VL: QSALTQPRSVSASPGQSVTISCTGTHNLVSWVQHQPGRAPKLLIYDFNKRPSGVPDRFSGSGSGGTASLTITGLQDDDDAEYFCWAYEAFGGGTKLTVL ... 6.4e-05
Germ23 (antibody, V domains shown) VH: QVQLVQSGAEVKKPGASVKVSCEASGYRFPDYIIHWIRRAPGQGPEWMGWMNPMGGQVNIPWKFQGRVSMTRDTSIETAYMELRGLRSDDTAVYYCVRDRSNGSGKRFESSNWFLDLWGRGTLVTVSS VL: QSALTQPRSVSGSPGQSVTISCTGTHNLVSWCQHHPGKAPKLMIYDFNKRPSGVPDRFSGSGSGGTASLTISGLQAEDEAEYFCWAYEAFGGGTKLTVL ... 7.66e-05

Hi team, please reply with koff for each item in this list.
1. Germ12_NglycoSA_CysCA (antibody, V domains shown) VH: QVDLVQSGAVVKKPGDSVRVSCEAQGYRFPDYIIHWIRRAPGQGPEWMGWMNPMGGQVNIPWKFQGRVSMTRDTSIETAYMDLRGLRSDDTAVYYCVRDRSNGAGKRFESSNWFLDLWGRGTLVTVSS VL: QSALTQPRSVSGSPGQSVTISCTGTHNLVSWAQHQPGRAPKLLIYDFNKRPSGVPDRFSGSGSGGTASLTISGLQDEDDAEYFCWAYEAFGGGTKLTVL
2. NglycoSA (antibody, V domains shown) VH: ADLVQSGAVVKKPGDSVRISCEAQGYRFPDYIIHWIRRAPGQGPEWMGWMNPMGGQVNIPWKFQGRVSMTRDTSIETAFLDLRGLKSDDTAVYYCVRDRSNGAGKRFESSNWFLDLWGRGTAVTIQS VL: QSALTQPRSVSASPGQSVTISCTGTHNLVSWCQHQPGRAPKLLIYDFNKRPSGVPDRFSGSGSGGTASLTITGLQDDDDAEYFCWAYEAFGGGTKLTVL

Reply:
1. 4.92e-05
2. 6.12e-05
